The following compounds each carry a recorded IC50 for Human alpha-thrombin (Homo sapiens).

Solved entries (count: 5):
CCc1csc(C)c1C(=O)n1nc2c(c1N)CCCC2 (single isomer, unassigned) [Example 18] ... > 100 µM
CCN1CCC(C(=O)n2nc3c(c2N)CCCC3)c2ccccc21 (single isomer, unassigned) [Example 74] ... > 100 µM
Cc1cc2c(C(=O)n3nc(N)c4c3CCCC4)cccc2o1 (single isomer, unassigned) [Example 59] ... > 100 µM
CN1CCC(C(=O)n2nc3c(c2N)CCCC3)c2ccccc21 (single isomer, unassigned) [Example 73] ... > 50 µM
Nc1c2c(nn1C(=O)[C@@H]1CCNc3c(Cl)cccc31)C[C@H](O)CC2 (single isomer, unassigned) [Example 210] ... > 100 µM

Record CCc1cscc1C(=O)n1nc(N)c2c1CCCC2 (single isomer, unassigned) [Example 12] , field IC50: > 50 µM

So for Nc1c2c(nn1C(=O)[C@H]1CCNc3ccc(Cl)cc31)CC[C@@H](O)C2 (single isomer, unassigned) [Example 148] , the logged IC50 turned out to be > 80 µM

Lookup result for Nc1c2c(nn1C(=O)[C@H]1CCNc3ccc(F)cc31)CC[C@H](N)C2 (stereo in doubt) [Example 192] ; measured IC50: > 90 µM

So, Cc1cccc2c1NCC[C@H]2C(=O)n1nc2c(c1N)CC[C@H](O)C2 (single isomer, unassigned) [Example 197] ? Its IC50 was > 150 µM

---

Recorded below: pIC50, system Human FXIIa (Homo sapiens, UniProt P00748).
pIC50: −log10 of the molar value.

Nc1nn(C(=O)c2cccc3c2CC(=O)N3)c2c1CCCC2 (single isomer, unassigned) ... < 4.00

The value of pIC50 recorded for Nc1nn(C(=O)[C@H]2CCNc3ccc(F)cc32)c2c1C[C@H](O)CC2 (relative stereo) when tested on Human FXIIa (Homo sapiens, UniProt P00748) reads < 4.05

# pIC50 measured on Human FXIIa (Homo sapiens, UniProt P00748) for item Nc1nn(C(=O)C2CCNc3c(Cl)cccc32)c2c1CCC(O)C2 (single isomer, unassigned) = < 4.00

Tested system Human FXIIa (Homo sapiens, UniProt P00748); pIC50 recorded for "CCc1cc2c(C(=O)n3nc(N)c4c3CCCC4)ccnc2[nH]1" was < 4.00

Tested on Human FXIIa (Homo sapiens, UniProt P00748): Nc1nn(C(=O)[C@@H]2CCNc3ccccc32)c2c1C[C@@H](O)CC2 (single isomer, unassigned) . Observed pIC50: < 4.00

Kindly note: Human FXIIa (Homo sapiens, UniProt P00748), CN1CCC(C(=O)n2nc3c(c2N)CCCC3)c2ccccc21 (single isomer, unassigned) [Example 73] , pIC50 value reported: < 4.30

For CO[C@H]1CCc2nn(C(=O)[C@@H]3CCNc4ccc(F)cc43)c(N)c2C1 (single isomer, unassigned) on Human FXIIa (Homo sapiens, UniProt P00748), measured pIC50 was < 4.00

Reported pIC50 (Human FXIIa (Homo sapiens, UniProt P00748)) for entry "Cc1cc2ccc(C(=O)n3nc(N)c4c3CCCC4)cc2o1" is < 4.30

Entry Nc1nn(C(=O)[C@H]2CCNc3c(Cl)cccc32)c2c1CC[C@@H](O)C2 (single isomer, unassigned) under Human FXIIa (Homo sapiens, UniProt P00748) had pIC50 of < 4.00

Hey, Human FXIIa (Homo sapiens, UniProt P00748) data for "Cc1csc(C)c1C(=O)n1cc2c(n1)CCCC2" : pIC50 came out at < 4.00

---

Below are compounds with their IC50 as measured on Human FXIIa (Homo sapiens, UniProt P00748).
Sequence (P00748 373-615 limits assumed): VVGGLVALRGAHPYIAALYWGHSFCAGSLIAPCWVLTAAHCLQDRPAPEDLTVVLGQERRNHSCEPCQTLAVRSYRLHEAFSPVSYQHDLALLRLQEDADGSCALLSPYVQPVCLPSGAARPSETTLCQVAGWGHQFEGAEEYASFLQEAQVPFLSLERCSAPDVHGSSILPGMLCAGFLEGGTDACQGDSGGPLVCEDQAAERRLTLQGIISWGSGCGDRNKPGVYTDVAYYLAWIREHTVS
Sequence (P00748 20-372 partner limits assumed): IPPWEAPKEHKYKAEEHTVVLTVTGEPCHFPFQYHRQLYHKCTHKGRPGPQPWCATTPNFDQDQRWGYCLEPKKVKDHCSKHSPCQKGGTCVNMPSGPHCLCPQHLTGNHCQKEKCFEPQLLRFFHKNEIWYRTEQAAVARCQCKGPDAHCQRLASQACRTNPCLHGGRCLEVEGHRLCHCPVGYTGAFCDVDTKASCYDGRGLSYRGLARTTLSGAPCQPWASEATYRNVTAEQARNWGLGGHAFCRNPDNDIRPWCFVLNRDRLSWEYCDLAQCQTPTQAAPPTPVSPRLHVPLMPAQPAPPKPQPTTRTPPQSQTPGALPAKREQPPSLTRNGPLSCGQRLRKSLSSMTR

Nc1c2c(nn1C(=O)[C@@H]1CCNc3ccc(F)cc31)CC[C@@H](N)C2 (stereo in doubt) ... > 80 µM
CCc1csc(C)c1C(=O)n1nc(N)c2c1CCCC2 (single isomer, unassigned) ... > 100 µM
COc1ccc2c(c1)NCCC2C(=O)n1nc(N)c2c1CCCC2 (stereo not shown) ... > 100 µM
Nc1nn(C(=O)C2CCNc3ccc(F)cc32)c2c1CC(NC(=O)OCc1ccccc1)CC2 (single isomer, unassigned) ... > 55 µM
O=C(Nc1[nH]nc2c1CCCC2)C1OCCc2ccccc21 (stereo not shown) ... > 10 µM

Human FXIIa (Homo sapiens, UniProt P00748) IC50 of Nc1nn(C(=O)C2CCCc3[nH]ccc32)c2c1CCCC2 (stereo not shown) is > 100 µM

Measured on Human FXIIa (Homo sapiens, UniProt P00748), Cc1cccc2c1NCC[C@H]2C(=O)n1nc(N)c2c1C[C@H](O)CC2 (single isomer, unassigned) has a documented IC50 of > 175 µM
